Biological target: recombinant human NAMPT (Homo sapiens, UniProt P43490)
Construct: His tag (N); made in house; host or cells: E. coli BL21-CodonPlus (DE3)-RIL, pET21a+ vector
Sequence (P43490 whole entry): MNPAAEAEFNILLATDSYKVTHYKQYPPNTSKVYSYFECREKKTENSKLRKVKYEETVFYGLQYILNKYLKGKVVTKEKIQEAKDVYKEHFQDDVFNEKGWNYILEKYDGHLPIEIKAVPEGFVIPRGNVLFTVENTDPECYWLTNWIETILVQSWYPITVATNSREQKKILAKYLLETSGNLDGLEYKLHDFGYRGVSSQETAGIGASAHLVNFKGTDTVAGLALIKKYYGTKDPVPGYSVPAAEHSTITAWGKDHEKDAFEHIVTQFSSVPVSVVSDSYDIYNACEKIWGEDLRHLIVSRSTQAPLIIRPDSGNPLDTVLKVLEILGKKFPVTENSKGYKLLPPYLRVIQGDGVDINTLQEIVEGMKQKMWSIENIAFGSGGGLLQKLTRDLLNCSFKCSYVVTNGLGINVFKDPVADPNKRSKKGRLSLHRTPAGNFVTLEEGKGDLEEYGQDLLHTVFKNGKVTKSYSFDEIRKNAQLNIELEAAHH
Assay: HTS / fixed-concentration NAMPT activity screen (fluorometric)
Type: biochemical
Details: 20 μM compound; analogues of the 46 non-fluorescent inhibitors
Measurement Name: NAMPT inhibition activity at 20 μM

{"columns": ["Compound", "Measurement Name", "Result"],
 "data": [
  ["O=C(Nc1ccc(OCc2nnc(-c3ccccc3)o2)cc1)c1cnccn1 [M350-0100]", "NAMPT inhibition activity at 20 μM", "Yes"],
  ["CCCn1c(=O)c(-c2ccc(C(=O)NCc3cccnc3)cc2)nc2ccccc21 [M049-0244]", "NAMPT inhibition activity at 20 μM", "Yes"]
]}
